# Tested on: HOP-62
# Protocol Description: NCI tumour cell line growth inhibition, 48 h
The source made the active and inactive calls. Rule as the data show it: active = GI50 up to about 1.1 µM and inactive = higher. Where a SMILES comes first, the peptide text is derived from it. [ ]: non-standard residue; d: D form. Phe(4-NO2) = N[CH](Cc1ccc([N+](=O)[O-])cc1)C(=O)O
Thanks in advance; please answer with one of these: Yes (active), No (inactive)

The examples below pair each entry with its known result.
# Compound, Label Value
data = [
    ("COC(=O)[C@@H]1C2OC(C)(C)OC2CN1C(=O)OCc1ccccc1 (stereo partly drawn)", "No"),
    ("CO/N=C(\\C(=O)Nc1cncs1)c1csc(NC(c2ccccc2)(c2ccccc2)c2ccccc2)n1", "No"),
    ("COc1cc2c(cc1OCCCOc1cc3c(cc1OC)C(=O)N1CCC[C@H]1C(=O)N3)N=C[C@@H]1CCCN1C2=O", "No"),
    ("Cc1cc2c(cc1C)C(=O)/C(=N/Nc1ccc(F)cc1)CCO2", "No"),
    ("CN(C)c1ccc(/C=C2\\N=C(N/N=C/c3ccccc3)NC2=O)cc1", "No"),
    ("Sc1nn2c(COc3ccc(Cl)cc3)nnc2s1", "No"),
    ("COC(=O)/C=C/[C@@H]1[C@H](C)N1S(=O)(=O)c1ccc(C)cc1 (stereo partly drawn)", "No"),
    ("O=C1NNC2NC(=O)C3(NN2C1=O)c1ccccc1-c1ccccc13 (stereo not drawn)", "No"),
    ("OCC1OC(c2cccc3cc(O)c(O)cc23)CC1O (stereo not drawn)", "No"),
    ("CN(C)CCC(=O)N1C/C(=C\\c2ccc(Cl)c(Cl)c2)C(=O)/C(=C/c2ccc(Cl)c(Cl)c2)C1", "Yes"),
]

input: Assay result, entry COc1ccc(C2=Nc3c(nc(SC)[nH]c3=O)NC(c3ccccc3)C2)cc1 (stereo not drawn) — outcome?
output: No

input: Assay result, entry CN(Cc1cnc2c(n1)C(N)=NN(N)N2)c1ccc(C(=O)NC(CCP(=O)(O)O)C(=O)O)cc1 (stereo not drawn) — outcome?
output: No

input: Assay result, entry CCCCCCCCC(C)CCCCCCCCC(=O)OCC(COP(=O)([O-])OCC[N+](C)(C)C)OC(=O)CCCCCCCCC(C)CCCCCCCC (stereo not drawn) — outcome?
output: No

input: Assay result, entry O=C(Nc1nc2ncn(CCNCCn3cnc4nc(NC(=O)c5ccccc5)[nH]c(=O)c43)c2c(=O)[nH]1)c1ccccc1 — outcome?
output: No

input: Assay result, entry NCCN1CC2CCC(CC2)C1 — outcome?
output: No

input: Assay result, entry CCCc1cc(=O)oc2c3c(c4c(c12)OC(C)(C)CC4)O[C@H](C)[C@@H](C)[C@H]3O — outcome?
output: No

input: Assay result, entry CC(=O)OCC1=C2C(OC(=O)C(C)C)CC3(COC(C)=O)OC3/C=C\C3(C)OC3C2OC1=O (stereo not drawn) — outcome?
output: No

input: Assay result, entry CC(NC(=O)C(Cc1ccc([N+](=O)[O-])cc1)NC(=O)C(N)CCCCN)C(=O)NC(Cc1ccc([N+](=O)[O-])cc1)C(N)=O (stereo not drawn) (H-K[Phe(4-NO2)]A[Phe(4-NO2)]-NH2; configuration not given here) — outcome?
output: No
